test: In vitro cytotoxicity assay (MTT cell viability) in HepG2 cells; format: cell-based, human; conditions: human
MEASURED_ATTRIBUTE: CC50 at 7 days

[
  {
    "MOLECULE": "Cc1c(C(=O)Nc2ccc(F)c(F)c2)c2n(c1C(=O)C(=O)NC1(C)CCNCC1)CCCC2",
    "CC50 at 7 days": "> 30 µM"
  },
  {
    "MOLECULE": "COc1c(C(=O)Nc2ccc(F)c(F)c2)c(C)n(C)c1C(=O)C(=O)N[C@H]1CC[C@@H](O)CC1",
    "CC50 at 7 days": "> 30 µM"
  },
  {
    "MOLECULE": "Cc1cc(NC(=O)c2c(C)c(C(=O)C(=O)NCC(C)(C)CO)n(C)c2C)ccc1F",
    "CC50 at 7 days": "> 30 µM"
  },
  {
    "MOLECULE": "COC(=O)[C@H](NC(=O)C(=O)c1c(C)c(C(=O)Nc2ccc(F)c(C)c2)c(C)n1C)C(C)(C)C",
    "CC50 at 7 days": "> 30 µM"
  },
  {
    "MOLECULE": "O=C(N[C@H]1COC[C@@H]1O)C(=O)c1c(Cl)c(C(=O)Nc2ccc(F)c(Cl)c2)c2n1CCC2",
    "CC50 at 7 days": "5 to 30 µM"
  },
  {
    "MOLECULE": "Cc1cc(NC(=O)c2c(C)c(C(=O)C(=O)NOC(C)(C)C)n(C)c2C)ccc1F",
    "CC50 at 7 days": "> 30 µM"
  }
]

Exam item: # get_value(readout='CC50 at 7 days', item= Cc1cc(NC(=O)c2c(C)c(C(=O)C(=O)NC3CC4CCC(C3)S4(=O)=O)n(C)c2C)ccc1F (stereo not drawn) )
Marked response: > 30 µM

Exam item: Which CC50 at 7 days value is on record for `Cc1cc(NC(=O)c2c(C)c(C(=O)C(=O)NC3CCN(C4CCSCC4)CC3)n(C)c2C)ccc1F` ?
Marked response: > 30 µM

Exam item: // returns reported CC50 at 7 days for input `Cc1cc(Cl)cc(NC(=O)c2c(C)c(C(=O)C(=O)N[C@H](C)C(F)(F)F)n(C)c2C)c1`
Marked response: 0.5 to 4.99 µM

Exam item: Requested read-out: CC50 at 7 days. Entry: `Cc1cc(NC(=O)c2cc(C(=O)C(=O)N[C@H](C(N)=O)[C@@H](C)O)n3c2CCCC3)ccc1F`
Marked response: > 30 µM

Exam item: Would you kindly share the measured CC50 at 7 days for `Cc1cc(NC(=O)c2cc(C(=O)C(=O)NC(C)(C)C)n(C)c2)ccc1F` ?
Marked response: > 30 µM

Exam item: Form field: reported CC50 at 7 days of `Cc1cc(NC(=O)c2c(C)c(C(=O)C(=O)N[C@H]3COC[C@@H]3N3CCOCC3)n(C)c2C)ccc1F`
Marked response: > 30 µM

Exam item: Endpoint output: CC50 at 7 days of `COC(=O)[C@H](NC(=O)C(=O)c1c(C)c(C(=O)Nc2ccc(F)c(C)c2)c(C)n1C)[C@@H](C)O` . Value?
Marked response: > 30 µM

Exam item: What value of measured CC50 at 7 days is listed for `Cc1cc(NC(=O)c2c(C)c(C(=O)C(=O)N[C@@H]3CC[C@@H](O)C3)n(C)c2C)ccc1F` ?
Marked response: > 30 µM

Exam item: For the molecule shown here, `CC[C@H](C)NC(=O)C(=O)c1c(Cl)c(C(=O)Nc2cnc(F)c(C)c2)c2n1CCC2` , give the reported CC50 at 7 days.
Marked response: 5 to 30 µM

Exam item: // lookup CC50 at 7 days for `Cc1cc(NC(=O)c2c(C)c(C(=O)C(=O)NC(C)(C)C(F)(F)F)n(C)c2C)ccc1F`
Marked response: > 30 µM

----------
test: In vitro cytotoxicity assay (MTT cell viability) in HepG2 cells; assay type: cell-based, human; settings: human
Reported CC50 at 7 days by item:

The cases that follow already have their CC50 at 7 days on record.
[
  {
    "CPD_SMILES": "O=C(NC1(CO)CC(F)(F)C1)C(=O)c1c(Cl)c(C(=O)Nc2ccnc(F)c2)c2n1CCCC2",
    "MEASURED_ATTRIBUTE": "CC50 at 7 days",
    "EXPERIMENTAL_RESULT": "> 30 µM"
  },
  {
    "CPD_SMILES": "Cc1c(C(=O)Nc2ccc(F)c(Cl)c2)c2n(c1C(=O)C(=O)NC1(CO)CC(F)(F)C1)CCCC2",
    "MEASURED_ATTRIBUTE": "CC50 at 7 days",
    "EXPERIMENTAL_RESULT": "5 to 30 µM"
  },
  {
    "CPD_SMILES": "Cc1cc(NC(=O)c2c(C)c(C(=O)C(=O)NC(C)(C)C)n(C)c2Cl)ccc1F",
    "MEASURED_ATTRIBUTE": "CC50 at 7 days",
    "EXPERIMENTAL_RESULT": "5 to 30 µM"
  },
  {
    "CPD_SMILES": "Cc1c(C(=O)Nc2ccc(F)c(Cl)c2)c2n(c1C(=O)C(=O)NC1(CO)CC1)CCCC2",
    "MEASURED_ATTRIBUTE": "CC50 at 7 days",
    "EXPERIMENTAL_RESULT": "> 30 µM"
  },
  {
    "CPD_SMILES": "Cc1c(C(=O)Nc2cc(F)c(F)c(F)c2)c(C)n(C)c1C(=O)C(=O)Nc1ccc(F)nc1",
    "MEASURED_ATTRIBUTE": "CC50 at 7 days",
    "EXPERIMENTAL_RESULT": "5 to 30 µM"
  }
]

Exam item: State the recorded CC50 at 7 days for this entry: `Cc1cc(NC(=O)c2c(C)c(C(=O)C(=O)NC3(C)CC(F)(F)C3)n(C)c2C)ccc1F`
Marked response: > 30 µM

Exam item: Need CC50 at 7 days of `Cc1cc(NC(=O)c2c(C)c(C(=O)C(=O)NCCN3CCC(O)CC3)n(C)c2C)ccc1F` , thanks.
Marked response: > 30 µM

Exam item: Looking for the measured CC50 at 7 days of `Cc1cc(NC(=O)c2c(C)c(C(=O)C(=O)NC3(C)CCN(C(=O)c4cn(C)nc4C(F)F)CC3)n(C)c2C)ccc1F` , can you help?
Marked response: > 30 µM

Exam item: Requested field: CC50 at 7 days. Item: `Cc1cc(NC(=O)c2cc(C(=O)C(=O)NC3(CO)CC(F)(F)C3)n3c2CCCC3)ccc1F`
Marked response: > 30 µM

Exam item: Which CC50 at 7 days reading was recorded for the compound `Cc1cc(NC(=O)c2c(C)c(C(=O)C(=O)NC(C)(C)CO)n(C)c2C)cnc1F` ?
Marked response: > 30 µM

Exam item: Reported CC50 at 7 days for `Cc1c(C(=O)Nc2cccc(Cl)c2)c(C)n(C)c1C(=O)C(=O)N[C@@H]1CCC[C@@H](O)C1` : what is it?
Marked response: > 30 µM

Exam item: Could you tell me which CC50 at 7 days is on file for `Cc1cc(NC(=O)c2c(C)c(C(=O)C(=O)N[C@H]3CCc4nc(N)sc4C3)n(C)c2C)ccc1F` ?
Marked response: 5 to 30 µM

Exam item: So what's the measured CC50 at 7 days for this one? `CC(C)(C)NC(=O)C(=O)c1cc(C(=O)Nc2cc(F)cc(Cl)c2)c2n1CCCC2`
Marked response: 0.5 to 4.99 µM

----------
CC50 at 7 days reference
test: In vitro cytotoxicity assay (MTT cell viability) in HepG2 cells; format: cell-based, human; settings: human

[
  {
    "MOLECULE": "Cc1cc(NC(=O)c2c(C)c(C(=O)C(=O)N[C@@H]3CCCC[C@H]3O)n(C)c2C)cnc1F [Example 162]",
    "EXPERIMENTAL_RESULT": "> 30 µM"
  },
  {
    "MOLECULE": "Cc1noc(C2(NC(=O)C(=O)c3c(C)c(C(=O)Nc4cnc(F)c(C)c4)c(C)n3C)CC2)n1 [Example 160]",
    "EXPERIMENTAL_RESULT": "> 30 µM"
  },
  {
    "MOLECULE": "Cc1c(C(=O)Nc2ccnc(F)c2)c(C)n(C)c1C(=O)C(=O)NC12CC3CC(CC1C3)C2 [Example 90]",
    "EXPERIMENTAL_RESULT": "5 to 30 µM"
  },
  {
    "MOLECULE": "Cc1cc(NC(=O)c2c(C)c(C(=O)C(=O)NCc3cnc(N)s3)n(C)c2C)ccc1F [Example 97]",
    "EXPERIMENTAL_RESULT": "> 30 µM"
  },
  {
    "MOLECULE": "Cc1cc(NC(=O)c2cc(C(=O)C(=O)NC(C)(C)C)n3c2CN(S(C)(=O)=O)CC3)ccc1F [Example 589]",
    "EXPERIMENTAL_RESULT": "> 30 µM"
  }
]

Exam item: GET /values?readout=CC50 at 7 days&item= CC(C)(C)NC(=O)C(=O)c1cc(C(=O)Nc2ccc(F)c(Cl)c2)c2n1CCCC2 [Example 399]
Marked response: > 30 µM

Exam item: # query: CC50 at 7 days of entry Cc1cc(NC(=O)c2c(C)c(C(=O)C(=O)N[C@H]3CCN(S(C)(=O)=O)C3)n(C)c2C)ccc1F [Example 667]
Marked response: 0.5 to 4.99 µM

Exam item: # CC50 at 7 days lookup, item Cc1cc(NC(=O)c2c(C)c(C(=O)C(=O)Nc3ncc(C(F)(F)F)s3)n(C)c2C)ccc1F [Example 317]
Marked response: 5 to 30 µM

Exam item: GET /values?readout=CC50 at 7 days&item= Cc1c(C(=O)Nc2ccn(C)n2)c2n(c1C(=O)C(=O)NC(C)(C)CO)CCCC2 [Example 756]
Marked response: > 30 µM

Exam item: Param item = Cc1cc(NC(=O)c2c(C)c(C(=O)C(=O)NC34CC5CC(CC(O)(C5)C3)C4)n(CCO)c2C)ccc1F [Example 73] ; retrieve measured CC50 at 7 days.
Marked response: > 30 µM
